# System: normal individual (iCell) hiPSC-CMs
# method: Optical recording of VF2.1.Cl AP kinetics in normal individual (iCell) hiPSC-CMs, 100 Hz, IC200 KIC
# Assay type: cell-based, human
# particulars: read-out: EC50 (dose response curve for APD75)
valueType: EC50 (µM)
Write it as a number; the unit µM goes unstated.

Req: Let me know recorded EC50 for NC1=N[C@H](O)[C@H]2[C@H]3O[C@]4(O)O[C@@H]([C@@H](O)[C@@]2(N1)[C@@H]4O)[C@]3(O)CO , thanks.
Resp: 4.96

###

# Tested on: normal individual (iCell) hiPSC-CMs
# method: Optical recording of VF2.1.Cl AP kinetics in normal individual (iCell) hiPSC-CMs, 100 Hz, IC200 KIC
# Format: cell-based, human
# particulars: acute treatment 5 min, n = 3 wells per dose, 100 Hz; read-out: EC50 (dose response curve for APD75)
valueType: EC50 (µM)
Give the value, in units of µM, as a plain number.

Req: Using known records, supply EC50 for Cc1cccc(C)c1OCC(C)N (stereo not shown)
Resp: 41.1
